Data provenance: patent US20190002436A1

Tested on: RSV (Long)
Experiment: RSV cytopathic effect (CPE)-based viral replication assay
Format: cell-based, respiratory syncytial virus (RSV)
Details: human respiratory syncytial virus, HEp-2, 72 h, HEp-2 cells infected with RSV Long at MOI 0.015; 3 days at 37° C.; cell viability by CellTiter-Glo luminescence; read-out: EC50 (nm)
property label: EC50
Just the number plus its unit, please.

{"columns": ["compound", "subject of test", "EC50"],
 "data": [
  ["CN(C)C1(C(=O)N2CC3(C2)C(=O)N(Cc2ncc4ccccc4c2-c2ccc(C#N)nc2)c2ccccc23)CC1", "RSV (Long)", "10 nM"],
  ["O=C(N1CC2(C1)C(=O)N(Cc1ncc3ccccc3c1-c1cccnc1)c1ccccc12)C(F)(F)F", "RSV (Long)", "20 nM"],
  ["N#Cc1ccc(-c2c(CN3c4ccccc4[C@]4(C[C@H](O)C4)C3=O)ncc3ccccc23)cn1", "RSV (Long)", "11 nM"]
]}

In: Specify reported EC50 for the compound shown: O=c1n(Cc2ncc3cccc(F)c3c2CCCCO)c2cnccc2n1C1CC1
Out: 140 nM

In: Specify reported EC50 for the compound shown: NC1(CC(=O)N2CCC3(CC2)C(=O)N(Cc2ncc4ccccc4c2-c2cccnc2)c2cnccc23)CC1
Out: 8.1 nM

In: Specify reported EC50 for the compound shown: NCCC(=O)N1CCC2(CC1)C(=O)N(Cc1ncc3ccccc3c1-c1cccnc1)c1cnccc12
Out: 11 nM

In: Specify reported EC50 for the compound shown: N#Cc1ccc(-c2c(CN3C(=O)C4(CCN(C(=O)C5(N)CC5)CC4)c4ccncc43)ncc3ccccc23)cn1
Out: 6.4 nM

In: Specify reported EC50 for the compound shown: NC1(C(=O)N2CCC3(CC2)C(=O)N(Cc2ncc4ccccc4c2-c2ccc(OC(F)(F)F)cc2)c2cnccc23)CC1
Out: 23 nM

In: Specify reported EC50 for the compound shown: COC(=O)N1CC2(C1)C(=O)N(Cc1ncc3ccccc3c1-c1cncs1)c1ccccc12
Out: 0.4 nM

In: Specify reported EC50 for the compound shown: CS(=O)(=O)N1CCC2(CC1)C(=O)N(Cc1ncc3ccccc3c1-c1cncs1)c1cnccc12 [Example 98c]
Out: 1.9 nM

In: Specify reported EC50 for the compound shown: COC(=O)N1CCC(n2c(=O)n(Cc3ncc4ccccc4c3CCCCO)c3cnccc32)CC1
Out: 2 nM

In: Specify reported EC50 for the compound shown: NCCCC(=O)N1CCC2(CC1)C(=O)N(Cc1ncc3ccccc3c1-c1cccnc1)c1cnccc12
Out: 5.8 nM

In: Specify reported EC50 for the compound shown: N[C@H]1CCN(c2ccc3c(CCCCO)c(Cn4c(=O)n(C5CC5)c5ccncc54)ncc3c2)C1
Out: 1300 nM

In: Specify reported EC50 for the compound shown: CS(=O)(=O)N1CC2(C1)C(=O)N(Cc1ncc3cc(Cl)ccc3c1-c1cccnc1)c1cnccc12
Out: 4.8 nM

In: Specify reported EC50 for the compound shown: CN(C)C(=O)c1ccc(-c2c(CN3C(=O)C4(CCN(C(=O)C5(N(C)C)CC5)CC4)c4ccncc43)ncc3ccccc23)cn1 [Example 119b]
Out: 2.8 nM

In: Specify reported EC50 for the compound shown: NC(=O)N1CCC2(CC1)C(=O)N(Cc1ncc3ccccc3c1-c1cccnc1)c1cnccc12 [Example 135b]
Out: 2 nM

In: Specify reported EC50 for the compound shown: COC(=O)N1CCC(n2c(=O)n(Cc3ncc4ccccc4c3CCCC(F)(F)F)c3cnccc32)CC1
Out: 4 nM

In: Specify reported EC50 for the compound shown: CS(=O)(=O)Nc1ccc(-c2c(CN3C(=O)C4(CN(C(N)=O)C4)c4ccccc43)ncc3ccccc23)cc1
Out: 0.75 nM
